- condition.label: 303.15 K; 101.33 kPa; Liquid; Frequency=3 MHz; Single path-length method
property.name: speed of sound (m/s)

Input CCC(=O)[O-].CCCC[NH2+]CCO [N-(2-hydroxyethyl)butan-1-aminium propionate] . Output speed of sound: 1478.9

Input CCCC(=O)[O-].CCCC[NH2+]CCO [N-(2-hydroxyethyl)butan-1-aminium butyrate] . Output speed of sound: 1449

Input CCCCC(=O)[O-].CCCC[NH2+]CCO [N-(2-hydroxyethyl)butan-1-aminium pentanoate] . Output speed of sound: 1425.1

Input CCCC[NH2+]CCO.O=C[O-] [N-(2-hydroxyethyl)butan-1-aminium formate] . Output speed of sound: 1588.4

Input CC(=O)[O-].CCCC[NH2+]CCO [N-(2-hydroxyethyl)butan-1-aminium acetate] . Output speed of sound: 1528.1

---

- condition.label: 343.15 K; 101.33 kPa; Liquid; Vibrating tube method
property.name: mass density (kg/m3)

Input CCCCC(=O)[O-].CCCC[NH2+]CCO [N-(2-hydroxyethyl)butan-1-aminium pentanoate] . Output mass density: 933.6

Input CCC(=O)[O-].CCCC[NH2+]CCO [N-(2-hydroxyethyl)butan-1-aminium propionate] . Output mass density: 968.8

Input CCCC[NH2+]CCO.O=C[O-] [N-(2-hydroxyethyl)butan-1-aminium formate] . Output mass density: 1007.8

Input CCCC(=O)[O-].CCCC[NH2+]CCO [N-(2-hydroxyethyl)butan-1-aminium butyrate] . Output mass density: 946.9

Input CC(=O)[O-].CCCC[NH2+]CCO [N-(2-hydroxyethyl)butan-1-aminium acetate] . Output mass density: 985.6

---

- condition.label: 333.15 K; 101.33 kPa; Liquid; Falling or rolling sphere viscometry
property.name: viscosity (mPa·s)

Examples with answers:
Input CCC(=O)[O-].CCCC[NH2+]CCO [N-(2-hydroxyethyl)butan-1-aminium propionate] . Output viscosity: 67.4

Input CC(=O)[O-].CCCC[NH2+]CCO [N-(2-hydroxyethyl)butan-1-aminium acetate] . Output viscosity: 54

Input CCCCC(=O)[O-].CCCC[NH2+]CCO [N-(2-hydroxyethyl)butan-1-aminium pentanoate] . Output viscosity: 73.9

[1] CCCC(=O)[O-].CCCC[NH2+]CCO [N-(2-hydroxyethyl)butan-1-aminium butyrate]
[2] CCCC[NH2+]CCO.O=C[O-] [N-(2-hydroxyethyl)butan-1-aminium formate]
Challenge: Larger number for viscosity: 1 , or 2 ? Record your answer as the label of the chosen record.
Response given: 1
(1: 69.8 mPa·s, 2: 45.7 mPa·s)

---

- condition.label: 293.15 K; 101.33 kPa; Liquid; Vibrating tube method
property.name: mass density (kg/m3)

Input CCCCC(=O)[O-].CCCC[NH2+]CCO [N-(2-hydroxyethyl)butan-1-aminium pentanoate] . Output mass density: 970

Input CC(=O)[O-].CCCC[NH2+]CCO [N-(2-hydroxyethyl)butan-1-aminium acetate] . Output mass density: 1021.2

Input CCCC(=O)[O-].CCCC[NH2+]CCO [N-(2-hydroxyethyl)butan-1-aminium butyrate] . Output mass density: 983.7

Input CCCC[NH2+]CCO.O=C[O-] [N-(2-hydroxyethyl)butan-1-aminium formate] . Output mass density: 1038.1

Input CCC(=O)[O-].CCCC[NH2+]CCO [N-(2-hydroxyethyl)butan-1-aminium propionate] . Output mass density: 1004.9

---

- condition.label: 328.15 K; 101.33 kPa; Liquid; Falling or rolling sphere viscometry
property.name: viscosity (mPa·s)

Input CCCCC(=O)[O-].CCCC[NH2+]CCO [N-(2-hydroxyethyl)butan-1-aminium pentanoate] . Output viscosity: 98.1

[1] CCCC[NH2+]CCO.O=C[O-] [N-(2-hydroxyethyl)butan-1-aminium formate]
[2] CCCC(=O)[O-].CCCC[NH2+]CCO [N-(2-hydroxyethyl)butan-1-aminium butyrate]
Challenge: // compare: 1 vs 2 , metric viscosity, want the smaller Record your answer as the label of the chosen record.
Response given: 1
(1: 57.3 mPa·s, 2: 92.6 mPa·s)
